Origin of the recorded values: paper PMC5677968

- Assayed system: T1, STAG2(80–930)–SCC1(281–394) complex, WT (human, UniProt Q8N3U4-2 80-930; O60216 281-394)
- T1 construct: STAG2 (SA2), human, residues 80-930, in pET28a; SCC1 (RAD21), human, residues 281-394, in pGEX-6p1; also called purified STAG2–SCC1 WT; SA2–SCC1 complex; source: E. coli, co-expressed, purified (Glutathione Sepharose 4B, PreScission cleavage, ion exchange, size exclusion)
- T1 sequence (looked up) 1: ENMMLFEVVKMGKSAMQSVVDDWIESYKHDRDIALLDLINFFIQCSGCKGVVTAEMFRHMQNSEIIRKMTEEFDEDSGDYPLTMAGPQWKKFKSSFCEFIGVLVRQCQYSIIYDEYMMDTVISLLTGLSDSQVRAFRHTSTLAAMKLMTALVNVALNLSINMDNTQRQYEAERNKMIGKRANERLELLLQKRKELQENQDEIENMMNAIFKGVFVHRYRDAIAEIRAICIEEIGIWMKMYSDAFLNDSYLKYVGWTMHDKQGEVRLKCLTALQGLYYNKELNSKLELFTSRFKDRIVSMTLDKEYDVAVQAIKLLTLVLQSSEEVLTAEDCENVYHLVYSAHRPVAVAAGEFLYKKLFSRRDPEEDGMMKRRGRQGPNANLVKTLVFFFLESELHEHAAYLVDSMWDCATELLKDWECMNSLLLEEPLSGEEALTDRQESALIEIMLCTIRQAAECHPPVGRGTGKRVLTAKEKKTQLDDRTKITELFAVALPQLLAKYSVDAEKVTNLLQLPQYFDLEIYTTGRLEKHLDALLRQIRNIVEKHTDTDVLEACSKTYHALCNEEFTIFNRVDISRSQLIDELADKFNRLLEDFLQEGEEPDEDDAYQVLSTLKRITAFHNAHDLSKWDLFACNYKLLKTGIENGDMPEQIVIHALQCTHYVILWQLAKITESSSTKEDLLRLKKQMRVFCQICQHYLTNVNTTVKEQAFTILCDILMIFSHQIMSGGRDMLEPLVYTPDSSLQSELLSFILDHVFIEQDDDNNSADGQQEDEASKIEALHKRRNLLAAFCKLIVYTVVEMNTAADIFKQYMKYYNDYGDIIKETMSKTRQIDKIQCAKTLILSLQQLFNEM
- T1 sequence (looked up) 2: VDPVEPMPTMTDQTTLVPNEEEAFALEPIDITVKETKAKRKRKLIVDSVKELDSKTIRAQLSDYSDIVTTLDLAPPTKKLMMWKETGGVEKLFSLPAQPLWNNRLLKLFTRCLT
- Test summary: ITC; MicroCal iTC200, 20 °C; 20 uM STAG2(80–930)–SCC1(281–394) complex in the cell, titrated with 300 uM pSGO1 peptide; 20 mM Tris-HCl pH 7.7, 200 mM NaCl, 5 mM TCEP
- Reported conditions: both partners purified
Square brackets hold non-standard residues; d marks the D form. Ends that are not written are not given here. pT = C[C@@H](OP(=O)(O)O)[C@H](N)C(=O)O
Readout label: Kd (nM)
Provide only the numeric value, understood in nM.

Prompt line: Could you share which Kd value was measured for KSENKKTVPQKKMHKSVSSNDAYNFNLEEGVHL[pT]PFRQKVS (peptide, UniProt Q5FBB7 313-353, looked up, SGO1, human, residues 313-353; also called pSGO1; phospho-SGO1 peptide; source: synthetic peptide) [synthetic phospho-Thr346 SGO1 peptide containing residues 313–353 of human SGO1] ?
Response line: 230
